Assay: differential killing of epithelial or mesenchymal cells, primary screen, imaging, PC-3E GFP, TEM4-18 mCherry, co-culture (AID 1345086);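 note: cells exposed to compound for 72 h before imaging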
Settings: imaging cell counts, measured here: mesenchymal TEM4-18 mCherry cell survival, at 1 µM
Consider the cut-off 1. If the recorded normalised cell number is strictly smaller, the label is t; if not, the label is f.

[
  {
    "compound": "CCSCCC(N)C(=O)O (stereo unspecified)",
    "assigned class": "f"
  },
  {
    "compound": "CC[C@H](C)/C=C(C)/C=C/C1=CC2=C(Cl)C(=O)[C@](C)(OC(C)=O)C(=O)C2=CO1",
    "assigned class": "t"
  }
]

query: # TODO verify normalised cell number < 1 strictly for this compound: "S=C=NCc1ccccc1"
result: t

query: # TODO verify normalised cell number < 1 strictly for this compound: "COc1ccc2c(c1O)-c1c(OC)c(OC)cc3c1[C@H](C2)N(C)CC3"
result: f

----------
Assay: sensitizers of A549 cells to miR-34 induction, primary screen, imaging, A549 dox-inducible miR-34, nuclei and caspase counts (AID 1347080)
Details: A549 miR-34 inducible, Hoechst nuclei count, 48 h; measured here: total cells without miR-34 induction
Consider the cut-off 9000. If the recorded cell count is strictly smaller, the label is condition met; if not, the label is condition not met.

Below, 2 compounds whose answers are already recorded.
[
  {
    "compound": "COc1ccccc1N1CCNCC1",
    "assigned class": "condition not met"
  },
  {
    "compound": "CCCCCCC(C)(C)c1ccc([C@@H]2C[C@H](O)CC[C@H]2CCCO)c(O)c1",
    "assigned class": "condition met"
  }
]

# evaluate next
query: # TODO verify cell count < 9000 strictly for this compound: CN1CCC(c2ccc(F)cc2)C(COc2ccc3c(c2)OCO3)C1 (stereo not given)
result: condition met

----------
Assay: differential killing of epithelial or mesenchymal cells, primary screen, imaging, PC-3E GFP, TEM4-18 mCherry, co-culture (AID 1345086);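 note: cells exposed to compound for 72 h before imaging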
Conditions: imaging cell counts, measured here: mesenchymal TEM4-18 mCherry cell survival, at 1 µM
Use 1 as the dividing line for normalised cell number, with the line itself on the yes (1) side and lower values as no (0).

[
  {
    "compound": "C[N+]12CC(C[C@H]1c1cccnc1)C2",
    "assigned class": "yes (1)"
  },
  {
    "compound": "O=c1[nH]c2ccccc2n1C1CCN(CCCC(c2ccc(F)cc2)c2ccc(F)cc2)CC1",
    "assigned class": "yes (1)"
  },
  {
    "compound": "C/C=C(\\C)C(=O)O[C@H]1C[C@@H](OC(C)=O)[C@@]2(C(=O)OC)CO[C@@H]3C2[C@]12CO[C@](O)(C(=O)OC)[C@H]2[C@](C)(C12O[C@@]1(C)[C@H]1C[C@H]2OC2OC=C[C@@]21O)[C@@H]3O (stereo partly drawn)",
    "assigned class": "yes (1)"
  },
  {
    "compound": "C=Cc1cc(OC)c2c(c1)c(=O)oc1c2cc(OC)c2c(O)ccc([C@@H]3O[C@@H](C)[C@H](OC(C)=O)[C@H](N(C)C)[C@H]3O)c21",
    "assigned class": "no (0)"
  },
  {
    "compound": "Fc1ccc(C2CCNCC2COc2ccccc2)cc1 (stereo not drawn)",
    "assigned class": "yes (1)"
  },
  {
    "compound": "CC(C)(C#N)O[C@@H]1O[C@H](CO)[C@@H](O)[C@H](O)[C@H]1O",
    "assigned class": "no (0)"
  }
]

# evaluate next
query: // inclusive: normalised cell number at least 1? input: C[C@]12CCC3[C@@H](CC[C@@]45O[C@@H]4C(O)=C(C#N)C[C@]35C)C1CC[C@@H]2O (stereo partly drawn)
result: no (0)
